Recorded GI50 for the following molecules
# Test system: HOP-62
# Experimental protocol: NCI tumour cell line growth inhibition, 48 h
Activity calls are given as the source filed them. Cut-off read from the data, not from the text of the source: active = GI50 up to about 1.1 µM and inactive = higher.

Example cases with answers are listed next.
OC(C/C(=N\N=C(/CC(O)(C(F)(F)F)C(F)(F)F)c1ccccc1)c1ccccc1)(C(F)(F)F)C(F)(F)F
> 10 µM (inactive)
CCN(CC)c1ccc2cc(C(N)=O)c(=N)oc2c1
38.6 µM (inactive)
C=CC(OC(=O)C(C)C)c1ccc(OC(=O)C(C)C)cc1 (stereo not given)
9.95 µM (inactive)
COc1cccc2ccc(C(=O)c3ccccc3)nc12
> 100 µM (inactive)

Moving on to the next molecule.
Record "CC(=O)c1ccc(-c2oc(-c3ccccc3)cc2-c2ccc3c(c2)OCO3)s1" ; system HOP-62; GI50 = > 100 µM (inactive)

###

# Tested on: HCT-15
Property name: GI50

Record "Cc1cc(C)c(-n2c(-c3ccc(Br)cc3)cs/c2=N\N=C2C=C(C(C)(C)C)C(=O)C(C(C)(C)C)=C2)c(C)c1" ; system HCT-15; GI50 = > 100 µM

Record "COC(=O)N/N=C/c1oc(-c2ccccc2)c(-c2ccccc2)c1[N+](=O)[O-]" ; system HCT-15; GI50 = > 100 µM

###

# Test system: RPMI-8226
# Experimental protocol: NCI tumour cell line growth inhibition, 48 h
Activity calls are given as the source filed them. No stated cut-off is given here; in the data, active = GI50 up to about 1.1 µM and inactive = higher.
Property name: GI50

Example cases with answers are listed next.
COc1ccc(C2(CN(C)C)COc3cc(OC)c(OC)cc3C2=O)cc1OC (centres undefined)
23.5 µM (inactive)
C=Cc1c(C)c(O)cc2c1-c1ccc(O)c(C)c1CC2
22.4 µM (inactive)
Nc1nc(Cl)cc(OCC2(CO)CCCC2)n1
> 100 µM (inactive)

Memo: "COc1cc(OC)cc(-c2nc3cc(F)ccc3s2)c1" , reported GI50: > 100 µM (inactive)

###

Recorded GI50 for the following molecules
# System: NCI-H460
# Experimental protocol: NCI tumour cell line growth inhibition, 48 h
Activity calls are given as the source filed them. Rule as the data show it: active = GI50 up to about 1.1 µM and inactive = higher.

Example cases with answers are listed next.
CC(C)CCC[C@@H](C)C1CCC2[C@@H]3CCC4C[C@@H](NS(C)(=O)=O)CC[C@]4(C)C3CC[C@@]21C (stereo partly drawn)
> 100 µM (inactive)
COC(=O)CCC(=O)NC1=C(Nc2ccccc2)C(=O)c2ccccc2C1=O
15.3 µM (inactive)
COc1cc2c(cc1OC)C(C(CBr)CBr)N(C1CCCC1)CC2 (stereo not drawn)
> 100 µM (inactive)

Moving on to the next molecule.
Record "CC(=O)OC[C@@H](OC(C)=O)[C@H](OC(C)=O)[C@@H]1OC(C)(C)O[C@@H]1C1SCCCS1" ; system NCI-H460; GI50 = > 100 µM (inactive)

###

# System: TK-10
# Experimental protocol: NCI tumour cell line growth inhibition, 48 h
Active and inactive are the calls of the source. Cut-off read from the data, not from the text of the source: active = GI50 up to about 1.1 µM and inactive = higher.
Recorded GI50 for the following compounds

Example cases with answers are listed next.
CCOC(=O)C(NC(=O)CC(C)C)(Nc1ccc(C(F)(F)F)cc1)C(F)(F)F (configuration not stated)
40.5 µM (inactive)
O=C1N=C(Nc2ccccc2Cl)SC1C(=O)Nc1ccc([N+](=O)[O-])cc1[N+](=O)[O-] (configuration not stated)
51.6 µM (inactive)
CCOC(=O)CCC(NC(=O)N1CCN(c2c(C)nc(C)nc2O)CC1)C(=O)OCC (configuration not stated)
> 100 µM (inactive)
CCOC(=O)C(NC(=O)c1ccccc1)(N1CCOCC1)C(F)(F)F (configuration not stated)
> 100 µM (inactive)
OC(C/C(=N\N=C(/CC(O)(C(F)(F)F)C(F)(F)F)c1ccccc1)c1ccccc1)(C(F)(F)F)C(F)(F)F
> 10 µM (inactive)

Moving on to the next compound.
Memo: "COc1cccc2ccc(C(=O)c3ccccc3)nc12" , reported GI50: > 100 µM (inactive)
